B1: glmS ribozyme (parent)
chain: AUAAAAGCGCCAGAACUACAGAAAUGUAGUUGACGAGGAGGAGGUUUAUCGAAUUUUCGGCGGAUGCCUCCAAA

Variants of: B1
Test: self-cleavage kobs at 10000 uM GlcN6P; higher = faster cleavage; RNA array
Details: with glucosamine-6-phosphate
Fewer inactive variants are shown than the library holds.
Answer condition not met if self-cleavage kobs at 10000 uM GlcN6P is under 0.0002 s⁻¹, and condition met if it is 0.0002 s⁻¹ or more.

AUAAAAGCGCCAGAACUACAGAAAUGUAGUUGACGAGGCGGAGGUUUAUCGAAUUUUCGGCGGAUGCCGCCAAA [A39C U69G]	condition not met
AUAAAAGCGUCAGAACUACAGAAAUGUAGUUUACGAGGAGGAGGUUUAUCGAAUUUUCGGCGGAUGCCUCCAAA [C10U G32U]	condition not met
AUAAAAGCGCCCGAACUACAGAAAUGUAGUUGACGAGGUGGAGGUUUAUCGAAUUUUCGGCGGAUGCCUCCAAA [A12C A39U]	condition met
AUAAAAGCGCCAGAACUACAGAAAUGUAUUUGACGAGGCAGAGGUUUAUCGAAUUUUCGGCGGAUACCUCCAAA [G29U A39C G40A G66A]	condition not met
AUAAAAGCACCAGAACUACAGAAAUGUAGUUGACGAGAAGGAGGUUUAUCGAAUUUUCGGCGGAUGCCUCCAAA [G9A G38A]	condition not met

// switching to the query variant
Does self-cleavage kobs at 10000 uM GlcN6P meet or surpass 0.0002 s⁻¹ for AUAAAAGCGCCAGAACUACAGAAAUGUAGUUGACGAGGAGGAGGUUUAUCGAAUUUUCAGCGGAUGCCCCCAAA [G59A U69C] ?
condition not met
